For each record, write down the corresponding AUC of dose-response viability curve.
System: 786-O
Assay: AUC of dose-response viability curve, drug alone (arbitrary (AUC of normalised viability)); higher = less growth inhibition
Conditions: treatment: drug alone; 5 days
Numbers only.

### Prompt Recall the recorded AUC of dose-response viability curve for O=C(Cc1ccc(-c2ccc(OCCN3CCOCC3)cc2)cn1)NCc1ccccc1 [KX2-391] with 786-O and state it.
### Response 0.9

### Prompt Try the molecule FC(F)(F)c1ccc(/C=C/c2nc(COc3ccc(CCCCn4ccnn4)cc3)co2)cc1 [Mubritinib (TAK 165)]
### Response 1.04

### Prompt Try the molecule Cc1ncc(-c2ccnc(Nc3ccc(S(C)(=O)=O)cc3)n2)n1C(C)C [AZD5438]
### Response 1.66

### Prompt Try the molecule Cc1cc(Nc2cc(N3CCN(C)CC3)nc(/C=C/c3ccccc3)n2)n[nH]1.O=C(O)[C@H](O)[C@@H](O)C(=O)O [ENMD-2076]
### Response 1.82

### Prompt Try the molecule Cn1c(=O)c(F)c(Nc2ccc(I)cc2F)c2c(=O)n(C[C@@H](O)CO)cnc21 [TAK-733]
### Response 2.08

Respectfully, I request AUC of dose-response viability curve for each entry included below.
1. CCN1CCN(c2ccc(Nc3cc(N(C)C(=O)Nc4c(Cl)c(OC)cc(OC)c4Cl)ncn3)cc2)CC1 [BGJ398 (NVP-BGJ398)]
2. Cc1cccc(-c2nc(C(C)(C)C)[nH]c2-c2ccc3nccnc3c2)n1

### Response
[2.7, 2.63]
